System: MIF (Homo sapiens)
Assay Explanation: MIF tautomerase assay using pHPP as substrate
Format: biochemical
Measurement Conditions: inhibition of the MIF enzyme in vitro; mean of multiple test results; read-out: Tautomerase Inhibition pIC50 (converted)
Recorded Endpoint: IC50

>  <Compound>
Oc1ccc(N2CCN(c3nc(-n4ncc5ccccc54)c4ncn(CCc5nnn[nH]5)c4n3)CC2)cc1

>  <System>
MIF (Homo sapiens)

>  <Obs Value>
100 to 977 nM

$$$$
>  <Compound>
Nc1nc(N2CCC(O)(c3ccc(O)cc3)CC2)nc2c1ncn2-c1ccncc1

>  <System>
MIF (Homo sapiens)

>  <Obs Value>
10 to 97.7 nM

$$$$
>  <Compound>
COc1ncccc1-n1cnc2c(C)nc(N3CCN(c4ccc(O)cc4)CC3)nc21

>  <System>
MIF (Homo sapiens)

>  <Obs Value>
10 to 97.7 nM

$$$$

Ask | I have this compound here, O=C(O)Cn1cnc2c(-n3cnc4ccccc43)nc(N3CCN(c4ccc(O)cc4)CC3)nc21 , and I need its recorded IC50.
Reply | 10 to 97.7 nM

Ask | Could you share which IC50 value was measured for O=C(O)Cn1cnc2c(-n3ncc4c(O)cccc43)nc(N3CCN(c4ccc(O)cc4)CC3)nc21 ?
Reply | 10 to 97.7 nM

Ask | Give its IC50 value. Item: C[C@H](Nc1nc(N2CCN(c3ccc(O)cc3)CC2)nc2c1ncn2CCO)c1ccccc1
Reply | > 10000 nM

---

System: MIF (Homo sapiens, UniProt P14174)
Sequence (P14174 2-115 limits assumed): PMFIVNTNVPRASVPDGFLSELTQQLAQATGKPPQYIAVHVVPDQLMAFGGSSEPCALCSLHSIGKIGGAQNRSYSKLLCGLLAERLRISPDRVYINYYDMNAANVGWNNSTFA
Assay Explanation: MIF tautomerase assay using pHPP as substrate
Type: biochemical
Measurement Conditions: inhibition of the MIF enzyme in vitro; mean of multiple test results; read-out: Tautomerase Inhibition pIC50 (converted)
// reported IC50 for each item listed

>  <Compound>
OCCn1cnc2c(-n3ncc4ccccc43)nc(N3CCC(O)(c4ccc(O)cc4)CC3)nc21

>  <IC50>
100 to 977 nM

$$$$
>  <Compound>
C=CCc1nn(-c2nc(N3CCN(c4ccc(O)cc4)CC3)nc3c2ncn3CC(=O)O)c2ccccc12

>  <IC50>
1000 to 9770 nM

$$$$
>  <Compound>
Oc1ccc(C2(O)CCN(c3nc(Nc4ccncc4)c4nc[nH]c4n3)CC2)cc1

>  <IC50>
100 to 977 nM

$$$$
>  <Compound>
Oc1ccc(N2CCN(c3cc(-n4ncc5ccccc54)n4ncc(-c5cccnc5)c4n3)CC2)cc1

>  <IC50>
1000 to 9770 nM

$$$$

Shifting focus to the molecule that follows.
Ask | What reported IC50 corresponds to O=C1c2ccccc2C(=O)N1CCn1cnc2c(-n3ncc4ccccc43)nc(N3CCN(c4ccc(O)cc4)CC3)nc21 on MIF (Homo sapiens, UniProt P14174)?
Reply | 1000 to 9770 nM

---

System: MIF (Homo sapiens)
Assay Explanation: MIF tautomerase assay using pHPP as substrate
Type: biochemical
Measurement Conditions: inhibition of the MIF enzyme in vitro; mean of multiple test results; read-out: Tautomerase Inhibition pIC50 (converted)
Recorded Endpoint: IC50

Example results:
>  <Molecule>
Cc1nc(N2CCN(c3ccc(O)cc3)CC2)nc2c1ncn2-c1cccc(O)c1Cl [Example 37]

>  <IC50>
1000 to 9770 nM

$$$$
>  <Molecule>
O=C(O)Cn1cnc2c(N3Cc4ccccc4C3=O)nc(N3Cc4ccccc4C3=O)nc21 [Example 27]

>  <IC50>
> 10000 nM

$$$$
>  <Molecule>
Nc1nc(N2CCCN(c3ccccc3)CC2)nc2c1ncn2-c1ccncc1 [Example 227]

>  <IC50>
> 10000 nM

$$$$
>  <Molecule>
Oc1ccc(N2CCN(c3nc(NCCc4ccccc4)c4ncn(-c5cccnc5)c4n3)CC2)cc1 [Example 91]

>  <IC50>
100 to 977 nM

$$$$
>  <Molecule>
Cc1nc(N2CCC(O)(c3ccc(O)cc3)CC2)nc2c1ncn2-c1cccnc1 [Example 204]

>  <IC50>
10 to 97.7 nM

$$$$
>  <Molecule>
CN1CCN(c2nc(N3CCN(c4ccc(O)cc4)CC3)nc3c2ncn3-c2ccncc2)CC1 [Example 179]

>  <IC50>
1000 to 9770 nM

$$$$

Ask | Find the recorded IC50 belonging to Cc1nc(N2CCN(c3ccc(O)cc3)CC2)nc2c1ncn2-c1cccc(Cl)c1 [Example 65] and report it.
Reply | 1000 to 9770 nM

Ask | Requested field: IC50. Item: COc1ccc(-n2cnc3c(N)nc(N4CCN(c5ccc(O)cc5)CC4)nc32)cn1 [Example 85]
Reply | 100 to 977 nM
